Biological target: cdk2/cyclinE (Homo sapiens)
Assay: Cyclin-Dependent Kinase Assay cdk2/cyclinE
Conditions: read-out: cdk2/E IC50
pIC50: −log10 of the molar value.
Recorded metric: pIC50

CCCn1c(=O)ccc2cnc(Nc3ccc(Cl)c(C(F)(F)F)c3)nc21: 6.48
CCCCn1c(=O)ccc2cnc(Nc3ccc(C(N)=O)cc3)nc21: 6.54

###

Target: cdc2/cyclinB (Homo sapiens, UniProt P06493)
Sequence (P06493 whole entry): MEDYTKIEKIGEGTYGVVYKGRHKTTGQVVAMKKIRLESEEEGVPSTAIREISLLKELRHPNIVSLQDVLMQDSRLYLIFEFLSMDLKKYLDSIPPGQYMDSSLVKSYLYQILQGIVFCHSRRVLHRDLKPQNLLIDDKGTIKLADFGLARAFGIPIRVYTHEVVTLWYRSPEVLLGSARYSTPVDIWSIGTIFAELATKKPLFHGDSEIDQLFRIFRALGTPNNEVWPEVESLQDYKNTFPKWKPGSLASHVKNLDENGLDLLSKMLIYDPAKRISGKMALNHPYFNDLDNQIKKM
Sequence (P14635 whole entry, further chain): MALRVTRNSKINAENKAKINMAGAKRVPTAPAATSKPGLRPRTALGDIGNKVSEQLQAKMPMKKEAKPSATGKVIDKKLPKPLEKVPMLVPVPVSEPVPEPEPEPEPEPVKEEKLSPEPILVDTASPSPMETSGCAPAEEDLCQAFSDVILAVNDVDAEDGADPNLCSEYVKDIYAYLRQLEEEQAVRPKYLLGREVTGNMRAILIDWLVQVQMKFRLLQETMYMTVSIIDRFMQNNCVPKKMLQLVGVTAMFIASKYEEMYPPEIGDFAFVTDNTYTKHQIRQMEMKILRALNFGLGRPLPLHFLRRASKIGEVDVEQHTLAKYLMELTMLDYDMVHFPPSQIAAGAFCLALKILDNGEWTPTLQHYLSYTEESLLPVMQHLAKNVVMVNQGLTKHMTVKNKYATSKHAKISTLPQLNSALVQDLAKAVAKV
Test: Cyclin-Dependent Kinase Assay cdc2/cyclinB
pIC50: −log10 of the molar value.
Please enter true where pIC50 is greater than or equal to 7, and false where it is lower.

CCCCn1c(=O)ccc2cnc(Nc3ccc(Br)c(C(F)(F)F)c3)nc21: false
CCC(CC)n1c(=O)ccc2cnc(Nc3ccc(OC)c(OC)c3)nc21: true
CCC(C)n1c(=O)ccc2cnc(Nc3ccc(I)c(Cl)c3)nc21 (stereo not shown): false
CCCn1c(=O)ccc2cnc(Nc3cc(C(F)(F)F)cc(C(F)(F)F)c3)nc21: false
CCC(C)n1c(=O)ccc2cnc(Nc3cc(Cl)c(Cl)c(Cl)c3)nc21 (stereo not shown): false
CCCn1c(=O)ccc2cnc(Nc3ccc(O)c(Cl)c3)nc21: true
CCC(C)n1c(=O)ccc2cnc(Nc3ccc(Cl)c(C(F)(F)F)c3)nc21 (stereo not shown): false
CC1Nc2ccc(Nc3ncc4ccc(=O)n(C5CCCC5)c4n3)cc2C1C (stereo not shown): true
CCC(CC)n1c(=O)ccc2cnc(Nc3ccc(O)cc3F)nc21: false
CCC(C)n1c(=O)ccc2cnc(Nc3ccc(C)c(Cl)c3)nc21 (stereo not shown): false
CC(C)n1c(=O)ccc2cnc(Nc3ccc4[nH]nnc4c3)nc21: false
CC(C)n1c(=O)ccc2cnc(Nc3ccc4cn[nH]c4c3)nc21: false

###

Collected IC50 values appear next to each entry.
Biological target: cdk2/cyclinA (Homo sapiens)
Assay: Cyclin-Dependent Kinase Assay cdk2/cyclinA
Settings: cdk2/A IC50
Recorded metric: IC50 (nM)

CCCn1c(=O)ccc2cnc(Nc3ccc([N+](=O)[O-])cc3F)nc21: 2640
O=c1ccc2cnc(Nc3ccc(O)c(CN4CCOCC4)c3)nc2n1C1CCCC1: 200
CC(C)n1c(=O)ccc2cnc(Nc3cc(Cl)cc(Cl)c3)nc21: 860
CCn1c(=O)ccc2cnc(Nc3ccc(S(N)(=O)=O)cc3)nc21: 130
O=c1ccc2cnc(Nc3ccc(C(F)(F)F)cc3)nc2n1CC1CC1: 320
CCCn1c(=O)ccc2cnc(Nc3ccc(C(F)(F)F)cc3)nc21: 310
CCC(C)n1c(=O)ccc2cnc(Nc3cc(OC)c(OC)c(OC)c3)nc21 (stereo not drawn): 760
Cc1cc(Nc2ncc3ccc(=O)n(C4CCCC4)c3n2)ccc1Br: 56
CCCn1c(=O)ccc2cnc(Nc3cccc(I)c3)nc21: 296

###

Biological target: cdk4/D (Homo sapiens)
Sequence (P11802 whole entry): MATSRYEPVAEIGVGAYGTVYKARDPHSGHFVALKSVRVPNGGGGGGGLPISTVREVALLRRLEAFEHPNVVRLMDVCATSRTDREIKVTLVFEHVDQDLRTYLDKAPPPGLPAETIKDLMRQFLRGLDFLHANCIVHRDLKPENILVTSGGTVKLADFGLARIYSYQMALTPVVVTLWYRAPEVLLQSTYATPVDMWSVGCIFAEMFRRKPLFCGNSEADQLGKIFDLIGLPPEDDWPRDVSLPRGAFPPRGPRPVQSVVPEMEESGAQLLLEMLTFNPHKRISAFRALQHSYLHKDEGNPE
Sequence (P24385 whole entry, further chain): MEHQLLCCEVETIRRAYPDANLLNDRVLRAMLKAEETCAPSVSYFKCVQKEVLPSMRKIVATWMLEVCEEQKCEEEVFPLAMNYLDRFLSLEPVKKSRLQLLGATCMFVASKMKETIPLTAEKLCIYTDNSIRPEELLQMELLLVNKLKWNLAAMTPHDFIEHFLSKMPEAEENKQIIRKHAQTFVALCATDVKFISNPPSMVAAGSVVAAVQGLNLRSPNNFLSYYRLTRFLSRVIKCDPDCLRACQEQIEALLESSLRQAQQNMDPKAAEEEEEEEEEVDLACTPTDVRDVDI
Test: Cyclin-Dependent Kinase 4 (cdk4) Assay
Format: biochemical
Details: read-out: cdk4/D IC50
pIC50: −log10 of the molar value.
Collected pIC50 values appear next to each entry.
Recorded metric: pIC50

CCCn1c(=O)ccc2cnc(Nc3ccc(O)c(C)c3)nc21: 6.04
O=C1CSc2ccc(Nc3ncc4ccc(=O)n(C5CCCC5)c4n3)cc2N1: 7.72
CCCn1c(=O)ccc2cnc(Nc3ccc(S(N)(=O)=O)cc3)nc21: 6.01
CCCn1c(=O)ccc2cnc(Nc3cc(Cl)c(O)c(Cl)c3)nc21: 6.16
CCC(CC)n1c(=O)ccc2cnc(Nc3ccc(C(F)(F)F)cc3)nc21: 7.07
CC(C)n1c(=O)ccc2cnc(Nc3ccc(F)c(C(F)(F)F)c3)nc21: 6.01
CCn1c(=O)ccc2cnc(Nc3cc(Cl)c(O)c(Cl)c3)nc21: 5.69
O=c1ccc2cnc(Nc3cc(F)c(F)c(F)c3)nc2n1CC1CC1: 5.59
CCCCn1c(=O)ccc2cnc(Nc3ccc(S(N)(=O)=O)cc3)nc21: 6.74

Reference for the values: patent US20040224958A1
